Target: Cytochrome P450 2C19 (Homo sapiens)
Assay: Cytochrome panel assay with activity outcomes
Conditions: recombinant CYP, pro-luciferin dealkylation, luminescence, p450-cyp2c19; series mostly up to 57.1 µM
Experimental: The P450 gene superfamily is involved in the metabolism and clearance of xenobiotics. This assay used various human CYP P450 isozymes to measure the dealkylation of various pro-luciferin substrates to luciferin. The luciferin is then measured by luminescence after the addition of a luciferase detection reagent. […] Inhibitors and some substrates limit the production of luciferin, and decrease measured luminescence. […] 8, Detection, 1 sec, ViewLux luminescent read […]
Screen size: about 16,000 compounds; about 5,800 (36%) were called active. Inconclusive results (about 23%) are left out. Calls come from the whole dose curve; as a rule, active = well fitted curve in the direction sought with a large enough effect; inconclusive = small, poorly fitted or top-dose-only effect, or effect the other way; inactive = no such curve, though single readings can be large or run the other way. Some of the results follow.
Your response should consist of one outcome taken from 1 (yes) (active), 0 (no) (inactive)

| Mol smiles | Label value |
| --- | --- |
| CCN(CC)C(=O)CSc1nnc(-c2ccco2)n1N | 0 (no) |

Short answer needed: outcome of this test for CCOc1ccc(-c2nnc3n2N=C(c2ccc(OC)cc2)CS3)cc1 ?
1 (yes)

Also need CCOC(=O)c1sc(NC(=O)CSc2n[nH]c(-c3ccc(Cl)cc3Cl)n2)c(C#N)c1C , thanks.
1 (yes)

Subsequent entry: Cc1cccc(NC(=O)CSc2nc3ccccc3c3nc(CCc4c(C)n[nH]c4C)nn23)c1
1 (yes)

Note, next up: CNC(=O)NC(=S)NC(=O)c1ccc(OC)cc1
1 (yes)
